- Test system: SF-539
- ASSAY REMARKS: NCI tumour cell line growth inhibition, 48 h
Activity calls are given as the source filed them. Rule as the data show it: active = GI50 up to about 1.1 µM and inactive = higher. Residues, ends and D or L forms follow the SMILES beside them. *: point of attachment. Ethyl(2-NMe3+) = C[N+](C)(C)CC*; Boc = CC(C)(C)OC(=O)*
Recorded GI50 values for a group of molecules are listed next.

For orientation, consider the following solved cases.
COC(=O)c1ccccc1Nc1ccccc1C(=O)OC = 83 µM (inactive)
CC(=O)OC[C@H]1[C@@H]2C(CC[C@]13CO3)OC(=O)CC(C)[C@]2(C)CCc1ccoc1 (some centres not stated) = > 100 µM (inactive)
N#Cc1ccccc1/C=N/O = > 100 µM (inactive)
Cc1ccc(S(=O)(=O)NC(=O)NCCc2ccccc2)cc1 = > 100 µM (inactive)
O=C(O)c1cccc(SSc2cccc(C(=O)O)c2)c1 = > 100 µM (inactive)
COC(=O)C1C(O)C(C)C(O)OC1C(C)C(O)C(C)/C=C\C=C(/C)C(=O)Nc1c(C)c(OC(C)=O)c2c(c1O)C(=O)C(C)=C1OCOC(/C(C)=C/C(C)=O)=C12 (configuration not stated) = 13.2 µM (inactive)

CC(NC(=O)C(Cc1ccc(OCC[N+](C)(C)C)cc1)NC(=O)OC(C)(C)C)C(=O)NC(Cc1ccccc1)C(=O)NCC(N)=O (configuration not stated) (Boc-Y(Ethyl(2-NMe3+))AFG-NH2; configuration not given here) on SF-539 gives GI50 = 11.4 µM (inactive)

"CCn1c(-c2cc3ccccc3cc2OC(C)=O)n[nH]c1=S" on SF-539 gives GI50 = 35.6 µM (inactive)

"O=S(=O)(O)c1ccc(/N=N\c2ccc(/N=N\c3ccc(/C=C/c4ccc(/N=[N+](/[O-])c5ccc(/C=C/c6ccc(/N=N/c7ccc(/N=N\c8ccc(S(=O)(=O)O)cc8)cc7)cc6S(=O)(=O)O)c(S(=O)(=O)O)c5)cc4S(=O)(=O)O)c(S(=O)(=O)O)c3)cc2)cc1" on SF-539 gives GI50 = > 100 µM (inactive)

COCCCNC(=O)C1C(=O)N(CCCOC)C(=O)/C1=N\N (configuration not stated) on SF-539 gives GI50 = > 100 µM (inactive)

OC1CCSc2ccccc21 (configuration not stated) on SF-539 gives GI50 = > 100 µM (inactive)

"COC(=O)[C@H](Cc1ccccc1)NC(=O)c1ccc(CNC(=O)/C=C/c2csc(-c3ccccc3)n2)cc1" on SF-539 gives GI50 = 2.04 µM (inactive)

* * *

- Tested on: OVCAR-8
- ASSAY REMARKS: NCI tumour cell line growth inhibition, 48 h
Active and inactive are the calls of the source. Rule as the data show it: active = GI50 up to about 1.1 µM and inactive = higher.
Recorded GI50 values for a group of compounds are listed next.

For orientation, consider the following solved cases.
COc1cccc(C2c3cc4c(cc3OC(C)(N3CCCC3)C2C)OCO4)c1OC (stereo not given) = 10.8 µM (inactive)
Cc1c(C#N)c2nnn(-c3cccc(Cl)c3)c(=O)n2c1-c1ccccc1 = 5.31 µM (inactive)
O=C(O)c1cccc(SSc2cccc(C(=O)O)c2)c1 = > 100 µM (inactive)
CC(=O)OC[C@H]1[C@@H]2C(CC[C@]13CO3)OC(=O)CC(C)[C@]2(C)CCc1ccoc1 (stereo not given in full) = > 100 µM (inactive)

Value of GI50 reported for the compound "COC(=O)c1ccccc1Nc1ccccc1C(=O)OC" is 89.7 µM (inactive)

Value of GI50 reported for the compound Fc1ccccc1C1CC(c2ccc3ccccc3c2)=Nc2ccccc2S1 (stereo not given) is > 100 µM (inactive)

Value of GI50 reported for the compound "O=c1[nH]c2ccc(CC(=S)N3CCN(c4ccccc4)CC3)cc2o1" is > 79.1 µM (inactive)

Value of GI50 reported for the compound "CC(=O)Nc1ccc2nc(-c3cccc(Cl)c3)cc(O)c2c1" is 36.9 µM (inactive)

Value of GI50 reported for the compound "Cn1ncnc1CCc1ccccc1" is > 100 µM (inactive)

Value of GI50 reported for the compound "Clc1ccc(/C(=C/c2ccccc2)Cn2ccnc2)cc1" is 26.9 µM (inactive)

Value of GI50 reported for the compound Cc1cccc(C(O)c2ccccn2)c1O (stereo not given) is > 100 µM (inactive)

Value of GI50 reported for the compound "C[n+]1c2ccccc2n2c3ccccc3c(NCCCn3ccnc3)c(C#N)c21" is 1.55 µM (inactive)
